Cited source: ChEMBL document CHEMBL1145365

test: Distribution coefficient, log D of the compound; conditions: octanol/water
Listed here are compounds together with their documented logD.
Observed Property: logD

[[record]]
structure_smiles_string = "COc1cccc(OC)c1CNC(=O)Cc1cccc(C[C@@H](C)NC[C@H](O)c2ccc(O)c(CO)c2)c1"
endpoint_value = 0.8

[[record]]
structure_smiles_string = "C[C@H](Cc1cccc(CC(=O)NCc2cc(Cl)cc(Cl)c2)c1)NC[C@H](O)c1ccc(O)c(CO)c1"
endpoint_value = 2.3

[[record]]
structure_smiles_string = "O=C(Cc1cccc(CCNC[C@H](O)c2ccc(O)c(CO)c2)c1)NCc1ccccc1"
endpoint_value = 0.4

[[record]]
structure_smiles_string = "C[C@H](Cc1cccc(CC(=O)NCc2ccc(OC(F)(F)F)cc2)c1)NC[C@H](O)c1ccc(O)c(CO)c1"
endpoint_value = 2.4


====

molecular target: Beta-2 adrenergic receptor (Cavia porcellus) (UniProt Q8K4Z4); experiment: Agonist potency at beta-2 adrenoceptor in guinea pig trachea model relative to salmeterol; type: functional, tissue-based
Sequence (Q8K4Z4 whole entry, looked up): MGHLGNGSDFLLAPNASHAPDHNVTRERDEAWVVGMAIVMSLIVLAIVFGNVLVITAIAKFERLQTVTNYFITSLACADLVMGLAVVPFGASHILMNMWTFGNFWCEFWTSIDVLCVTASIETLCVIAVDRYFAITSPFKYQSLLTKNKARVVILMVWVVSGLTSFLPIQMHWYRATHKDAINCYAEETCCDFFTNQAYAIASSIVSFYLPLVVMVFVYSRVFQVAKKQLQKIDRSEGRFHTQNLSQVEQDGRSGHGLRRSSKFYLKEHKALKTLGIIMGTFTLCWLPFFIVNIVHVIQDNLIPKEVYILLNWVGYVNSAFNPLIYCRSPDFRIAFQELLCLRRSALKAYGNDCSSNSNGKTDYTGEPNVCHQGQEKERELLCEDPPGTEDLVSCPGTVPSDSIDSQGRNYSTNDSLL
Observed Property: Activity

[[record]]
structure_smiles_string = "Cc1ccc(CNC(=O)Cc2cccc(C[C@@H](C)NC[C@H](O)c3ccc(O)c(CO)c3)c2)cc1C"
test_system = "Beta-2 adrenergic receptor (Cavia porcellus) (UniProt Q8K4Z4)"
endpoint_value = 0.5

[[record]]
structure_smiles_string = "C[C@H](Cc1cccc(CC(=O)NCc2cc(C(F)(F)F)ccc2F)c1)NC[C@H](O)c1ccc(O)c(CO)c1"
test_system = "Beta-2 adrenergic receptor (Cavia porcellus) (UniProt Q8K4Z4)"
endpoint_value = 0.9

[[record]]
structure_smiles_string = "OCc1cc([C@@H](O)CNCCCCCCOCCCCc2ccccc2)ccc1O"
test_system = "Beta-2 adrenergic receptor (Cavia porcellus) (UniProt Q8K4Z4)"
endpoint_value = 1

[[record]]
structure_smiles_string = "C[C@H](Cc1cccc(CC(=O)NCc2cc(Cl)cc(Cl)c2)c1)NC[C@H](O)c1ccc(O)c(CO)c1"
test_system = "Beta-2 adrenergic receptor (Cavia porcellus) (UniProt Q8K4Z4)"
endpoint_value = 0.5

[[record]]
structure_smiles_string = "C[C@H](Cc1cccc(CC(=O)NCc2c(F)cccc2Cl)c1)NC[C@H](O)c1ccc(O)c(CO)c1"
test_system = "Beta-2 adrenergic receptor (Cavia porcellus) (UniProt Q8K4Z4)"
endpoint_value = 0.07

[[record]]
structure_smiles_string = "C[C@H](Cc1cccc(CC(=O)NCc2ccc(OC(F)(F)F)cc2)c1)NC[C@H](O)c1ccc(O)c(CO)c1"
test_system = "Beta-2 adrenergic receptor (Cavia porcellus) (UniProt Q8K4Z4)"
endpoint_value = 1

[[record]]
structure_smiles_string = "C[C@H](Cc1cccc(CC(=O)NCc2cccc3ccccc23)c1)NC[C@H](O)c1ccc(O)c(CO)c1"
test_system = "Beta-2 adrenergic receptor (Cavia porcellus) (UniProt Q8K4Z4)"
endpoint_value = 1

[[record]]
structure_smiles_string = "COc1cccc(OC)c1CNC(=O)Cc1cccc(C[C@@H](C)NC[C@H](O)c2ccc(O)c(CO)c2)c1"
test_system = "Beta-2 adrenergic receptor (Cavia porcellus) (UniProt Q8K4Z4)"
endpoint_value = 0.3

[[record]]
structure_smiles_string = "C[C@H](Cc1cccc(CC(=O)NCc2ccc(Cl)c(Cl)c2)c1)NC[C@H](O)c1ccc(O)c(CO)c1"
test_system = "Beta-2 adrenergic receptor (Cavia porcellus) (UniProt Q8K4Z4)"
endpoint_value = 0.4

[[record]]
structure_smiles_string = "C[C@H](Cc1cccc(CC(=O)NC2Cc3ccccc3C2)c1)NC[C@H](O)c1ccc(O)c(CO)c1"
test_system = "Beta-2 adrenergic receptor (Cavia porcellus) (UniProt Q8K4Z4)"
endpoint_value = 0.1

